Assay: Partition coefficient, P in n-octanol/phosphate buffer at pH 7.0
metric: P

{"compound": "CC1(C(N)=O)CCC=[N+]1[O-] (stereo unspecified)", "metric": "P", "result": 0.016}
{"compound": "CCC1(C(N)=O)CCC=[N+]1[O-] (stereo unspecified)", "metric": "P", "result": 0.056}
{"compound": "CCCCC1(C(N)=O)CCC=[N+]1[O-] (stereo unspecified)", "metric": "P", "result": 0.668}
{"compound": "CCOC(=O)C1(C)CCC=[N+]1[O-] (stereo unspecified)", "metric": "P", "result": 0.15}
{"compound": "CCCC1(C(N)=O)CCC=[N+]1[O-] (stereo unspecified)", "metric": "P", "result": 0.211}
{"compound": "CCCCCC1(C(N)=O)CCC=[N+]1[O-] (stereo unspecified)", "metric": "P", "result": 2.72}
